Reference source: the supplement of paper PMC12592484

Tested on: CAF#3 (primary prostate cancer-associated fibroblasts of myCAF-like type)
Experiment: drug sensitivity score (DSS2, normalised partial AUC of dose-response, 72 h CellTiter-Glo viability) (DSS (dimensionless)); higher = more sensitive (stronger growth inhibition / cytotoxicity); extreme values may be limits of the assay
Note to self: values exactly at 10 are yes. So drug sensitivity score at or above 10 is yes, below is no.

Take a look at these entries with their results.
| compound | class |
| --- | --- |
| CCN1CCN(Cc2ccc(Nc3ncc(F)c(-c4cc(F)c5nc(C)n(C(C)C)c5c4)n3)nc2)CC1 [Abemaciclib] (tested concentration range 0.2-2500 nM) | no |
| CNC(=O)c1cccc(-c2ccc3c(N4CCOC[C@@H]4C)nc(N4CCOC[C@@H]4C)nc3n2)c1 [Vistusertib] (tested concentration range 1-10000 nM) | yes |
| O=C(Nc1cccnc1)N1CCC(Cc2cccc(Oc3ccc(C(F)(F)F)cn3)c2)CC1 [PF-3845] (tested concentration range 1-10000 nM) | no |
| COc1cc(NS(C)(=O)=O)ccc1Nc1c2ccccc2nc2ccccc12 [Amsacrine] (tested concentration range 1-10000 nM) | no |

Now for another entry.
[ask] Determine whether this compound has drug sensitivity score no lower than 10: CO[C@@H]1[C@H](N(C)C(=O)c2ccccc2)C[C@H]2O[C@]1(C)n1c3ccccc3c3c4c(c5c6ccccc6n2c5c31)C(=O)NC4 [Midostaurin] (tested concentration range 1-10000 nM)
[reply] yes

====

Would you mind telling me the reported drug sensitivity score of each entry?
Tested on: CAF#5 (primary prostate cancer-associated fibroblasts of myCAF-like type)
Assay: drug sensitivity score (DSS2, normalised partial AUC of dose-response, 72 h CellTiter-Glo viability) (DSS (dimensionless)); higher = more sensitive (stronger growth inhibition / cytotoxicity); extreme values may be limits of the assay
Numbers only.

Record excerpt, results attached:
| molecule | measured parameter | quantitative readout |
| --- | --- | --- |
| CC(C)c1cc(C(=O)N2Cc3ccc(CN4CCN(C)CC4)cc3C2)c(O)cc1O [Onalespib] (tested concentration range 0.2-2500 nM) | drug sensitivity score | 8.6 |
| Cc1c(N)nc([C@H](CC(N)=O)NC[C@H](N)C(N)=O)nc1C(=O)N[C@H](C(=O)N[C@H](C)[C@@H](O)[C@H](C)C(=O)N[C@H](C(=O)NCCc1nc(-c2nc(C(=O)NCCC[S+](C)C)cs2)cs1)[C@@H](C)O)[C@@H](OC1OC(CO)C(O)C(O)C1OC1OC(CO)C(O)C(OC(N)=O)C1O)c1cnc[nH]1 (stereo partly specified) [Bleomycin] (tested concentration range 1-10000 nM) | drug sensitivity score | 3.2 |

For each entry beneath this line, provide reported drug sensitivity score.
1. CC1=C(/C=C/C(C)=C/C=C/C(C)=C/C(=O)O)C(C)(C)CCC1 [Tretinoin] (tested concentration range 1-10000 nM)
2. Cc1ccc(NC(=O)c2ccc(CN3CCN(C)CC3)cc2)cc1Nc1nc(-c2cccnc2)cs1 [Masitinib] (tested concentration range 1-10000 nM)
3. Nc1nc(OCc2cc(Br)cs2)c2[nH]cnc2n1 [Lomeguatrib] (tested concentration range 1-10000 nM)
4. CCOc1cc2ncc(C#N)c(Nc3ccc(OCc4ccccn4)c(Cl)c3)c2cc1NC(=O)/C=C/CN(C)C [Neratinib] (tested concentration range 0.1-1000 nM)
5. CCc1cncnc1N1CCN(Cc2nc3ccc(C(F)(F)F)cc3[nH]2)CC1 (tested concentration range 1-10000 nM)

[reply]
1: 1.7; 2: 3.1; 3: 0.2; 4: 0; 5: 1.6
